test-description: Intrinsic clearance in mouse hepatic microsomes at 1 uM up to 60 mins by LC-MS/MS analysis
Type: ADME, Microsome
test-context: liver microsomes, read-out: CLH

chem-smiles: C[C@]12C[C@@]34C=CC(=O)[C@@](C)(CCC(=O)Nc5c(O)ccc(C(=O)O)c5O)[C@@H]3[C@H](C[C@@H]1C4)O2
microsomal CLint at 1 µM (µL/min/mg): 13.6
